All figures here come from PubChem BioAssay (NCI).

System: MALME-3M melanoma
Test: NCI tumour cell line growth inhibition, 48 h
measure: GI50

{"molecule": "Nc1nonc1-c1nc2ccccc2n1Cc1ccc(F)cc1", "result": "5.09 µM"}
{"molecule": "O=C(O)c1cc2ccccc2c2c3c(ccc12)OCO3", "result": "140 µM"}
{"molecule": "CCCCCCCCCCCCCCCCCCNCc1ccc(Cl)cc1", "result": "7.37 µM"}
{"molecule": "Nc1c(C(=O)Nc2ccccn2)sc2nc3c(cc12)C(O)CCC3 (configuration not stated)", "result": "19.3 µM"}
{"molecule": "CC(C)(C)c1cc(C(=O)Nc2ccc(C(=O)NCCN)cc2)cc(C(C)(C)C)c1", "result": "1.43 µM"}
{"molecule": "C[C@H]1C/C=C/[C@H]2[C@@H]3O[C@]3(C)[C@@H](C)[C@H]3[C@H](Cc4ccccc4)NC(=O)[C@]32OC(=O)O/C=C/[C@@](C)(O)C1=O", "result": "0.0212 µM"}
{"molecule": "Cc1ccc(S(=O)(=O)OCC#CCOS(=O)(=O)c2ccc(C)cc2)cc1", "result": "1.97 µM"}
{"molecule": "NCCCCCNc1noc(Cc2c[nH]c3cc(Br)ccc23)n1", "result": "2.59 µM"}
{"molecule": "Cc1ccc(Nc2cc(Cl)c([N+](=O)[O-])cc2[N+](=O)[O-])cc1", "result": "5.72 µM"}
{"molecule": "Nc1ccccc1C#C/C=C\\C#CC#C/C=C\\C#Cc1ccccc1N", "result": "11.7 µM"}
{"molecule": "COc1cccc(-c2nn(-c3ccccc3)cc2-c2ccnc(NCCCNC(=O)c3cccc(C(F)(F)F)c3)c2)c1", "result": "2.66 µM"}
{"molecule": "Cc1cc(-c2nnc(/C=C/c3ccc4c(c3)OCO4)o2)n[nH]1", "result": "8.96 µM"}

---

Test system: PC-3 prostate
Test: NCI tumour cell line growth inhibition, 48 h

{"compound": "Cc1ccc(S(=O)(=O)NC(=O)Nc2cccc(S(N)(=O)=O)c2)cc1", "TGI": "> 100 µM"}
{"compound": "CC[C@H](C)C1=C(OC(C)=O)[N@+]2([O-])Oc3ccc(-c4c(O)c(O)c(-c5ccc(OC(C)=O)cc5)c(OC(C)=O)c4OC(C)=O)cc3O[C@]2([C@@H](C)CC)C(=O)N1O", "TGI": "> 50 µM"}
{"compound": "CCN(CC)Cc1ccccc1CC(=O)N1c2ccccc2C(=O)Nc2cccnc21", "TGI": "> 100 µM"}
{"compound": "c1ccc2c(c1)nn1c3ccc4nonc4c3[n-][n+]21", "TGI": "> 100 µM"}
{"compound": "CC1=NN(c2nc(N)nc(CSc3cc(Cl)c(C)cc3S(N)(=O)=O)n2)C(C)(C)C1", "TGI": "> 10 µM"}
{"compound": "CCOC(=O)Nc1nc2ccccc2[nH]1", "TGI": "> 100 µM"}
{"compound": "CO[C@@H]1CCN(c2nccc(Nc3cc4c(C(C)C)ccc(N5CC(CS(C)(=O)=O)[C@H]5C)c4cn3)n2)C[C@@H]1F (stereo not given in full)", "TGI": "> 100 µM"}
{"compound": "Cn1nc2ccc([N+](=O)[O-])cc2[n+]1[O-]", "TGI": "> 100 µM"}
{"compound": "N#Cc1cc2c(cc1C#N)/C(=N\\c1cccc(N)n1)N=C2Nc1cccc(N)n1", "TGI": "> 100 µM"}
{"compound": "CCC1C(C)C=NN1c1nc(N)nc(C(C#N)=Nc2ccc(N(C)C)cc2)n1 (stereo not given)", "TGI": "10.1 µM"}
{"compound": "O=[N+]([O-])C1=Cc2cc(Cl)ccc2OC1c1cccc2ccccc12 (stereo not given)", "TGI": "2.23 µM"}
{"compound": "S=C=Nc1ccc(CSc2nc3ccccc3[nH]2)cc1", "TGI": "32 µM"}
{"compound": "O=C(Nc1cccc(-n2cc(-c3ccncc3)c(-c3ccc(O)c(Cl)c3)n2)c1)c1ccc2c(c1)OCCO2", "TGI": "> 100 µM"}
{"compound": "Cc1cccc(NC(=O)O/N=C(\\Cl)C(C)C)c1", "TGI": "30.9 µM"}
{"compound": "CO/N=C(/C)c1cccc(Nc2nc3ccc(Cl)cc3c3[nH]c4ccccc4c23)c1", "TGI": "32.6 µM"}

---

Test system: RPMI-8226 leukemia
Experiment: NCI tumour cell line growth inhibition, 48 h
# TGI per entry

{"compound": "CC(=O)N1c2ccccc2C2=NN(C)C(=N)SC21 (stereo not given)", "system_tested": "RPMI-8226 leukemia", "TGI": "> 100 µM"}
{"compound": "O=C1CC(c2c(-c3ccccc3)[nH]c3ccccc23)C(=O)N1c1ccccc1 (stereo not given)", "system_tested": "RPMI-8226 leukemia", "TGI": "> 100 µM"}
{"compound": "CSc1nc(Nc2ccccc2Cl)c2c(N)nn(C)c2n1", "system_tested": "RPMI-8226 leukemia", "TGI": "> 100 µM"}
{"compound": "O=C(O)C1OC1C(=O)O (stereo not given)", "system_tested": "RPMI-8226 leukemia", "TGI": "> 100 µM"}
{"compound": "CCOC(=O)c1nc2ccccc2n(CC)c1=O", "system_tested": "RPMI-8226 leukemia", "TGI": "> 100 µM"}
{"compound": "O=S(=O)(O)c1cc(S(=O)(=O)O)c2cc(N=Nc3c(O)ccc4ccccc34)ccc2c1", "system_tested": "RPMI-8226 leukemia", "TGI": "> 100 µM"}
{"compound": "C/C(=N\\NC(=O)C[N+](C)(C)C)c1sc(-c2cccnc2)nc1C", "system_tested": "RPMI-8226 leukemia", "TGI": "> 100 µM"}
{"compound": "O=C(O)C1CC=CCC1C(=O)Nc1cccc(O)c1 (stereo not given)", "system_tested": "RPMI-8226 leukemia", "TGI": "> 100 µM"}
{"compound": "Cc1ccc(S(=O)(=O)N/N=C(\\c2nc3ccc([N+](=O)[O-])cc3[nH]c2=O)C(O)c2ccc([N+](=O)[O-])cc2)cc1 (stereo not given)", "system_tested": "RPMI-8226 leukemia", "TGI": "> 100 µM"}
{"compound": "O=C(O)CCO/N=C1/C(c2c(O)[nH]c3ccccc23)=Nc2ccccc21", "system_tested": "RPMI-8226 leukemia", "TGI": "> 100 µM"}

---

System: U251 CNS
Assay: NCI tumour cell line growth inhibition, 48 h
measure: TGI

{"compound": "CC(C)(C)c1cc2c(c(C(C)(C)C)c1O)CC(=O)O2", "result": "> 100 µM"}
{"compound": "CC(C)(C)C1CCC2c3c([nH]c4ncccc34)C3C(=O)N(c4ccccc4)C(=O)C3C2C1 (stereo not drawn)", "result": "> 100 µM"}
{"compound": "CCOC(=O)c1nc2ccccc2nc1NCc1ccc(OC)c(OC)c1", "result": "> 100 µM"}
{"compound": "CNC(=O)N(CCC#N)CCN(C(=O)N(C)C)c1ccccc1", "result": "> 100 µM"}
{"compound": "C/C=C/C/C=C/[C@H](C)C[C@H](O)[C@@H]1C[C@@H]2O[C@H]2/C=C/[C@@H]2OC(C)(C)O[C@H]2/C=C/C[C@H](C)CC(=O)O1", "result": "> 100 µM"}
{"compound": "CSc1nc(Nc2ccccc2Cl)c2c(N)nn(C)c2n1", "result": "> 100 µM"}
{"compound": "Cc1c[nH]c(C(=O)O)c1-c1cccn1-c1ccc(Cl)cc1[N+](=O)[O-]", "result": "> 100 µM"}
{"compound": "C=C1[C@H]2O[C@H]2[C@@H](OC(C)=O)[C@@]2(C)[C@@H](OC(C)=O)C[C@@H](OC(=O)CCC)[C@@](C)(O)[C@@H]2[C@@H](OC(C)=O)[C@]2(O)[C@@H](C)C(=O)O[C@H]2[C@H]1Cl", "result": "> 100 µM"}
{"compound": "CCc1cccc(C(C)C)c1NC(=O)CCl", "result": "> 100 µM"}
{"compound": "COc1cc2oc(=O)cc(C)c2c(OC)c1O", "result": "> 100 µM"}
{"compound": "O=C1CCC(=O)N1CNc1ccc2c(c1)S(=O)(=O)c1ccccc1O2", "result": "> 100 µM"}
{"compound": "O=C1C(=C2CCCC2)CCC1CN1CCCCC1 (stereo not drawn)", "result": "> 100 µM"}
{"compound": "CC(=O)N1c2ccccc2C2=NN(C)C(=N)SC21 (stereo not drawn)", "result": "> 100 µM"}
{"compound": "Cc1csc(NNC(N)=O)n1", "result": "> 100 µM"}
{"compound": "COc1cc(-n2cc(-c3ccccc3)[nH]c2=O)cc(OC)c1OC", "result": "> 100 µM"}
{"compound": "O=C(O)C1OC1C(=O)O (stereo not drawn)", "result": "> 100 µM"}
{"compound": "NC(=O)CN1CC(C2=C(O)CN(CC(N)=O)C2=O)=CC1=O", "result": "> 100 µM"}
{"compound": "CC1=NN(c2nc(N)nc(CSc3cc(Cl)c(C)cc3S(N)(=O)=O)n2)C(C)(C)C1", "result": "> 10 µM"}
